observation.type: melting point

Problem: For N#Cc1c(-c2ccc(S(=O)(=O)NC(CF)CF)cn2)n(C2CCC2)c2ccc(Cl)cc12 , write its melting point.
Result: 182 to 186 °C

Problem: For CC(C)NS(=O)(=O)c1cnc(-c2c(C#N)c3cc(Cl)ccc3n2C(C)C)nc1 , write its melting point.
Result: 202 to 220 °C

Problem: For Cc1c(F)cc2c(c1F)c(C#N)c(-c1ccc(S(=O)(=O)N[C@@H](C)C(F)(F)F)cn1)n2C1CCCC1 , write its melting point.
Result: 218 to 224 °C

Problem: For Cc1cc2c(cc1O)c(C(N)=O)c(-c1ccc(S(=O)(=O)NC(C)(C)C)cn1)n2C1CCC1 , write its melting point.
Result: 292 to 293 °C

Problem: For C[C@H](NS(=O)(=O)c1ccc(-c2c(C#N)c3ccc(C4CC4)cc3n2C2CCCC2)nc1)C(F)(F)F , write its melting point.
Result: 178 to 181 °C

Problem: For CC(C)(C)S(=O)(=O)Nc1ccc(-c2c(C#N)c3c(F)cc(C4CC4)cc3n2C2CCCCC2)nc1 , write its melting point.
Result: 252 to 255 °C

Problem: For NC(=O)c1c(-c2ccc(S(=O)(=O)NC(CF)CF)cn2)n(C2CCC2)c2cc(OC(F)F)ccc12 , write its melting point.
Result: 211 to 213 °C

* * *

Please go through the items and note down their melting point.

Problem: For CC(C#N)NS(=O)(=O)c1ccc(-c2c(C#N)c3ccc(OC(F)F)cc3n2C2CCC2)nc1 (stereo not drawn) [compound 301] , write its melting point.
Result: 188 to 190 °C

Problem: For Cc1ccc(-n2c(-c3ccc(S(=O)(=O)N[C@@H](C)C(F)(F)F)cn3)c(C#N)c3cc(F)c(C)cc32)nc1 [compound 885] , write its melting point.
Result: 250 to 254 °C

Problem: For C[C@H](NS(=O)(=O)c1ccc(-c2c(C#N)c3ccc(Cl)cc3n2C2CCCCC2)nc1)C(F)(F)F [compound 515] , write its melting point.
Result: 217 to 224 °C

Problem: For C[C@H](NS(=O)(=O)c1cnc(-c2c(C#N)c3cc(F)ccc3n2CC2CC2)nc1)C(F)(F)F [compound 548] , write its melting point.
Result: 175 to 180 °C

Problem: For C[C@H](NS(=O)(=O)c1ccc(-c2c(C#N)c3cc(F)c(O)cc3n2C2CCCC2)nc1)C(F)(F)F [compound 576] , write its melting point.
Result: 214 to 216 °C

Problem: For C[C@H](NS(=O)(=O)c1cnc(-c2c(C#N)c3ccc(F)cc3n2C2CCC2)nc1)C(F)(F)F [compound 494] , write its melting point.
Result: 223 to 225 °C

Problem: For C[C@H](NS(=O)(=O)c1ccc(-c2c(C#N)c3ccc(F)cc3n2C2CCC2)nc1)C1CC1 [compound 144] , write its melting point.
Result: 136 to 138 °C

Problem: For CCc1cc2c(cc1F)c(C(N)=O)c(-c1ccc(S(=O)(=O)NC(C)(C)C(F)(F)F)cn1)n2C1CCCC1 [compound 871] , write its melting point.
Result: 185 to 188 °C

Problem: For N#Cc1c(-c2ccc(S(=O)(=O)NC(CF)CF)cn2)n(C2CCC2)c2cc(OC(F)(F)F)ccc12 [compound 24] , write its melting point.
Result: 158 to 160 °C

Problem: For CC(C)NS(=O)(=O)c1ccc(-c2c(C#N)c3ccc(C4CC4)cc3n2C2CCC2)nc1 [compound 7] , write its melting point.
Result: 174 to 176 °C

Problem: For COc1ccc2c(C#N)c(-c3ncc(S(=O)(=O)N[C@H](C)C(F)(F)F)cn3)n(C3CCC3)c2c1 [compound 183] , write its melting point.
Result: 147 to 149 °C

Problem: For Cc1cc2c(cc1F)c(C(N)=O)c(-c1ccc(S(=O)(=O)NC(C)(C)C)cn1)n2-c1ccccc1 [compound 1116] , write its melting point.
Result: 241.2 to 242.5 °C

Problem: For CCc1cc2c(cc1F)c(C#N)c(-c1ccc(S(=O)(=O)N[C@@H](C)C(F)(F)F)cn1)n2C1CCC1 [compound 640] , write its melting point.
Result: 205 to 206 °C

Problem: For Cc1ccc2c(c1)c(C#N)c(-c1ccc(S(=O)(=O)NC(CF)CF)cn1)n2C1CCCCC1 [compound 199] , write its melting point.
Result: 210 to 215 °C

Problem: For N#Cc1c(-c2ncc(S(=O)(=O)NC(CF)CF)cn2)n(C2CCC2)c2ccc(CF)cc12 [compound 377] , write its melting point.
Result: 131 to 134 °C

* * *

Please go through the items and note down their melting point.

Problem: For C[C@@H](NS(=O)(=O)c1ccc(-c2c(C(N)=O)c3cc(F)c(OC(F)F)cc3n2C2CCCC2)nc1)C(F)(F)F , write its melting point.
Result: 218 to 220 °C

Problem: For Cc1c(F)cc2c(c1F)c(C#N)c(-c1ccc(S(=O)(=O)NC(CF)CF)cn1)n2C1CCC1 , write its melting point.
Result: 207 to 212 °C

Problem: For N#Cc1c(-c2ccc(S(=O)(=O)NC(CF)CF)cn2)n(C2CCCC2)c2ccc(OC(F)(F)F)cc12 , write its melting point.
Result: 159 to 160 °C

Problem: For CC(C)n1c(-c2ncc(S(=O)(=O)NC(CF)CF)cn2)c(C#N)c2ccc(OC(F)F)cc21 , write its melting point.
Result: 219 to 221 °C

Problem: For Cc1cc(-c2c(C#N)c3cc(F)c(OC(F)F)cc3n2C2CCC2)ncc1S(=O)(=O)N[C@@H](C)C(F)(F)F , write its melting point.
Result: 204 to 210 °C

Problem: For CC(=O)c1sccc1-n1c(-c2ccc(S(=O)(=O)N[C@@H](C)C(F)(F)F)cn2)c(C#N)c2cc(F)c(C)cc21 , write its melting point.
Result: 208.7 to 212.4 °C

Problem: For Cc1cc2c(cc1F)c(C#N)c(-c1ccc(S(=O)(=O)N[C@@H](C)C(F)(F)F)cn1)n2-c1nccs1 , write its melting point.
Result: 203 to 208 °C

* * *

observation.type: melting point

Problem: For N#Cc1c(-c2ncc(S(=O)(=O)NC(CF)CF)cn2)n(CC2CC2)c2ccc(F)cc12 , write its melting point.
Result: 216 to 221 °C

Problem: For Cc1ccc2c(C#N)c(-c3ncc(S(=O)(=O)NC(C)C)cn3)n(C3CCCC3)c2c1 , write its melting point.
Result: 213 to 214 °C

Problem: For Cc1ccc2c(c1)c(C#N)c(-c1ccc(S(=O)(=O)N[C@@H](C)C(F)(F)F)cn1)n2-c1ccc(F)cc1 , write its melting point.
Result: 195 to 200 °C

Problem: For N#Cc1c(-c2ncc(S(=O)(=O)NC(CF)CF)cn2)n(C2CCCC2)c2cc(OC(F)F)ccc12 , write its melting point.
Result: 199 to 201 °C

Problem: For C[C@H](NS(=O)(=O)c1ccc(-c2c(C(N)=O)c3cc(F)c(C4CC4)cc3n2C2CCCC2)nc1)C(F)(F)F , write its melting point.
Result: 255 to 257 °C

Problem: For N#Cc1c(-c2ccc(S(=O)(=O)NC(CF)CF)cn2)n(-c2ccccn2)c2cc(Cl)ccc12 , write its melting point.
Result: 219 to 221 °C

Problem: For CCc1ccc2c(C#N)c(-c3ccc(S(=O)(=O)NC(C)C)cn3)n(C(C)C)c2c1 , write its melting point.
Result: 185 to 186 °C

Problem: For Cc1ccc2c(C#N)c(-c3ncc(S(=O)(=O)N[C@@H](C)C4CC4)cn3)n(C3CCCC3)c2c1 , write its melting point.
Result: 180 to 182 °C

Problem: For CCc1cc2c(cc1F)c(C#N)c(-c1cc(C)c(S(=O)(=O)N[C@H](C)C(F)(F)F)cn1)n2-c1ccccn1 , write its melting point.
Result: 178 to 183 °C

Problem: For Cc1ccc2c(C#N)c(-c3ccc(S(=O)(=O)NC(CF)CF)cn3)n([C@@H]3CCOC3)c2c1 , write its melting point.
Result: 152 to 153 °C

Problem: For CC(C)n1c(-c2ccc(S(=O)(=O)N[C@@H](C)C3CC3)cn2)c(C#N)c2ccc(OC(F)(F)F)cc21 , write its melting point.
Result: 144 to 145 °C

Problem: For CCc1ccc2c(c1)c(C#N)c(-c1ccc(S(=O)(=O)N[C@@H](C)C(F)(F)F)cn1)n2C1CCCC1 , write its melting point.
Result: 159.5 to 160.5 °C

Problem: For N#Cc1c(-c2ncc(S(=O)(=O)NC(CF)CF)cn2)n(C2CCCC2)c2cc(F)ccc12 , write its melting point.
Result: 167 to 169 °C

Problem: For Cc1cc2c(cc1F)c(C(N)=O)c(-c1ccc(S(=O)(=O)N[C@@H](C)C(F)(F)F)cn1)n2-c1ncccc1F , write its melting point.
Result: 130 to 138 °C

Problem: For Cc1ccc2c(c1)c(C#N)c(-c1ccc(S(=O)(=O)NC(CF)CF)cn1)n2CC1CC1 , write its melting point.
Result: 186 to 188 °C

Problem: For Cc1cc2c(cc1Cl)c(C#N)c(-c1ccc(S(=O)(=O)N[C@@H](C)C(F)(F)F)cn1)n2-c1ccccn1 , write its melting point.
Result: 210 to 212 °C

Problem: For Cc1cc2c(cc1Cl)c(C(N)=O)c(-c1ccc(S(=O)(=O)N[C@@H](C)C(F)(F)F)cn1)n2C1CCC1 , write its melting point.
Result: 207 to 209 °C

Problem: For C[C@H](NS(=O)(=O)c1ccc(-c2c(C(N)=O)c3cc(F)c(C4CC4)cc3n2C2CCC2)nc1)C(F)(F)F , write its melting point.
Result: 225 to 227 °C

Problem: For C[C@H](NS(=O)(=O)c1cnc(-c2c(C#N)c3cc(F)ccc3n2C2CCCCC2)nc1)C(F)(F)F , write its melting point.
Result: 236 to 238 °C

Problem: For CC(C)NS(=O)(=O)c1cnc(-c2c(C(N)=O)c3ccc(OC(F)(F)F)cc3n2C2CCCC2)nc1 , write its melting point.
Result: 238 to 241 °C

Problem: For Cc1cc2c(cc1F)c(C#N)c(-c1ccc(NS(=O)(=O)N[C@@H](C)C(F)(F)F)cn1)n2C1CCCC1 , write its melting point.
Result: 206 to 208 °C

Problem: For N#Cc1c(-c2ncc(S(=O)(=O)NC(CF)CF)cn2)n(CC2CC2)c2ccc(Cl)cc12 , write its melting point.
Result: 245 to 250 °C

Problem: For C[C@H](NS(=O)(=O)c1cnc(-c2c(C#N)c3ccc(C4CC4)cc3n2C2CCCC2)nc1)C1CC1 , write its melting point.
Result: 185 to 189 °C

Problem: For Cc1cc2c(cc1F)c(C#N)c(-c1ccc(S(=O)(=O)NC(CF)CF)cn1)n2-c1ccccn1 , write its melting point.
Result: 233 to 236 °C

Problem: For N#Cc1c(-c2ncc(S(=O)(=O)NC(CF)CF)cn2)n(C2CCC2)c2ccc(F)cc12 , write its melting point.
Result: 175 to 180 °C

Problem: For Cc1c(F)cc2c(C#N)c(-c3ccc(S(=O)(=O)N[C@@H](C)C(F)(F)F)cn3)n(C3CCC3)c2c1F , write its melting point.
Result: 186 to 191 °C

Problem: For CCc1cc2c(cc1F)c(C#N)c(-c1ccc(S(=O)(=O)N[C@@H](C)C(F)(F)F)cn1)n2-c1cc(Cl)ccn1 , write its melting point.
Result: 185 to 190 °C

Problem: For Cc1cc2c(cc1F)c(C#N)c(-c1ccc(S(=O)(=O)N[C@@H](C)C(F)(F)F)cn1)n2-c1ncc(CO)s1 , write its melting point.
Result: 180 to 185 °C

Problem: For C[C@H](NS(=O)(=O)c1cnc(-c2c(C#N)c3ccc(F)cc3n2C2CCCCC2)nc1)C1CC1 , write its melting point.
Result: 169 to 170 °C
